meta.source: paper PMC3856649

# Tested on: NOTCH1
# method.notes: In vitro Notch cellular assay
# Assay type: cell-based, human
# condition.label: Homo sapiens, U2OS, read-out: unbound RO4929097 concentration for 50% inhibition of the maximum Notch activity (IC50)
measured.attribute: pIC50
Entry type: numeric. Quantity: pIC50, the -log10 of concentration in molar units.

Complete the entry with pIC50 for CC(C)(C(=O)NCC(F)(F)C(F)(F)F)C(=O)N[C@@H]1C(=O)Nc2ccccc2-c2ccccc21
6.96

====

# method.notes: Clinical plasma pharmacokinetics in patients with advanced breast cancer
# Type: in vivo, human
# condition.label: human, plasma, oral, Total RO4929097 AUC0–24h, in combination with GDC-0449 150 mg orally; median (interquartile range), n = 8
measured.attribute: AUC(0-t) (µM·h)
Numbers only here, please. The scale is µM·h.

Quickly give me recorded AUC(0-t) for CC(C)(C(=O)NCC(F)(F)C(F)(F)F)C(=O)N[C@@H]1C(=O)Nc2ccccc2-c2ccccc21
0.723

====

# method.notes: Clinical plasma pharmacokinetics in patients with advanced breast cancer
# Format: in vivo, human
# condition.label: human, plasma, po, 20 mg, Total RO4929097 Tmax, given alone, 20 mg orally; median (interquartile range), n = 8
measured.attribute: Tmax (h)
Quick note: give the figure in h, leave out the unit.

Answer with reported Tmax of CC(C)(C(=O)NCC(F)(F)C(F)(F)F)C(=O)N[C@@H]1C(=O)Nc2ccccc2-c2ccccc21 [RO4929097]
2.5
